B1: ZER1 (parent)
chain: FDGPEAWGVCEPQREEVEERMWAA

Variants of: B1
Assay: protein stability index of a GFP-peptide fusion (GPS, HEK-293T) (PSI 1-6); higher = more stable;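 further: lentivirally expressed fusions sorted by FACS into six bins by GFP to DsRed ratio, PSI derived from sequencing read proportions per bin multiplied by bin number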
Conditions: c terminus: a fixed tail appended
# label = satisfied if protein stability index >= 3 else not satisfied

Variant string: Q13S
Cat: not satisfied

Variant string: E19C
Cat: not satisfied

Variant string: G8R
Cat: not satisfied

Variant string: F1G
Cat: satisfied

Confirm if protein stability index reported for the variant V17P is 3 or above.
not satisfied

Do the same for A23E please
not satisfied

Do the same for R20Y please
not satisfied

Do the same for E15M please
not satisfied

Do the same for E15Q please
not satisfied

Do the same for W7V please
satisfied

Do the same for Q13I please
not satisfied

Do the same for P12T please
satisfied

Do the same for E16M please
not satisfied

Do the same for C10M please
satisfied

Do the same for R14V please
not satisfied

Do the same for Q13V please
satisfied
